Overview of recorded glycan array binding signal (z-score) for various binders
Target or system: Fuc(a1-2)Gal(b1-3)GalNAc
Measurement notes: glycan array binding signal (z-score within array); higher = stronger binding
Test conditions: glycan notation: IUPAC condensed, linker removed
The entries come from a sample that favours the strongest signals as a whole.
Note: the reply should be a number with no unit written.

MPA (Maclura pomifera) (protein) GVTFDDGAYTGIREINFEYNSETAIGGLRVTYDLNGMPFVAEDHKSFITGFKPVKISLEFPSEYIVEVSGYVGKVEGYTVIRSLTFKTNKQTYGPYGVTNGTPFSLPIENGLIVGFKGSIGYWLDYFSIYLSLNGPNGKSQSIIVGPWGDRVTN : 2.25
VLRB.aGPA.23-GCN4-biotin (Petromyzon marinus) (protein) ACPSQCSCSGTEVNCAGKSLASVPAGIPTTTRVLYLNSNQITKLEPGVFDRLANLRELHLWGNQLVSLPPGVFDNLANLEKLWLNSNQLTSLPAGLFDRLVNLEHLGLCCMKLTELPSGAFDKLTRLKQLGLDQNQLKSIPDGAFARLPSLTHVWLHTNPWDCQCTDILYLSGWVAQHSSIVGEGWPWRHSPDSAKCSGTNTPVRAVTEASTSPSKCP : 12.6
LlpA1 (Pseudomonas fluorescens), Q4KHC3 (protein) MGSSHHHHHHSSGLVPRGSHMAWIRYDFTDNGSSVLPARYYMAPNQYLQSPNKRFKLLFQADGNLALYDGAQLAWVADQNTPFTNVSKGNKKDPMMVFMNYGFVLDDPLRGRIWSTTPSDPTMGSREDASLRAFTQVQDDGNIVTVDTIPHWYAPNGRVFTPAVGAAMIIGGTTELVPGQFYSAGEHSLVFQGDGNLVVYGPNSSVIWATYTQNKGGVRCVMQEDGNLVIYAANNGVVWQSGTGGHPGATIRLQANGSFTIVTERPVWARFGYTPTIKPPRVFYPDHKWKTGSYTWNNVF : -0.757
CLEC9a (Mus musculus), Q8BRU4 (protein) MHAEEIYTSLQWDIPTSEASQKCQSPSKCSGAWCVVTMISCVVCMGLLATSIFLGIKFFQVSSLVLEQQERLIQQDTALVNLTQWQRKYTLEYCQALLQRSLHSGSDCSPCPHNWIQNGKSCYYVFERWEMWNISKKSCLKEGASLFQIDSKEEMEFISSIGKLKGGNKYWVGVFQDGISGSWFWEDGSSPLSDLLPAERQRSAGQICGYLKDSTLISDKCDSWKYFICEKKAFGSCI : 0.078

Fill in: glycan array binding signal (z-score) of Clec12b (Mus musculus), Q149M0 (protein) MSDEVTYATLMLQDSARVRGNQDGNNLRKEGHPAQSSLWRGAALSLMTLCLVLVTGLVTLATMFLQVSNDINSDSEKLSQLQKSIHPQQDNLSESLNSSRKSLTEESLQSQISALLERQEQMATKLCKEFLIHASDHKCNPCPKTWQWYGNSCYYFSINEEKSWSDSRKDCIDKNATLVKIDSTEERDLLQSQLSLTFSFFWLGLSWNSSGRNWLWEDGSFPPPTLFSDKELASFNGSRDCAYFERGNIYASRCSAEIPWICEKTASLVKTEDLD is ___
-0.451

Fill in: glycan array binding signal (z-score) of LlpB (Pseudomonas fluorescens) (protein) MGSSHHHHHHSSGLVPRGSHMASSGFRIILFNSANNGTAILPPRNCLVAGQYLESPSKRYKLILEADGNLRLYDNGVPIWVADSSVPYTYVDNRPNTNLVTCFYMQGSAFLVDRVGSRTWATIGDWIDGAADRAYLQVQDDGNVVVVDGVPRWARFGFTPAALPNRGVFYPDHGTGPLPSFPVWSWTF is ___
-0.631

The measured values listed here are drawn from the supplement of paper PMC8728848.
